- ASSAYED_TARGET: 5-HT1A (Homo sapiens (Human))
- Sequence (P08908 whole entry, species assumed): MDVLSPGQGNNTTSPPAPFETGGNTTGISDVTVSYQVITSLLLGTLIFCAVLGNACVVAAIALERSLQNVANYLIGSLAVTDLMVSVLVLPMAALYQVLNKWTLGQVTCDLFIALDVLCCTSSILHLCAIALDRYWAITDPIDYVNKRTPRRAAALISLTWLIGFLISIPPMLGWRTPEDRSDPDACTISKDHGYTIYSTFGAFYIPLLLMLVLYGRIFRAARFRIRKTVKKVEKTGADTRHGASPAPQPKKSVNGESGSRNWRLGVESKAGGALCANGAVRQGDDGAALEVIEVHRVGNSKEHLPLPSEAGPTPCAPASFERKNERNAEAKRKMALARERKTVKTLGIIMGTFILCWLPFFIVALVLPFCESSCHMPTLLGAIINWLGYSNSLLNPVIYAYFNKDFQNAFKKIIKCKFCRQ
- ASSAY_DETAILS: 5-HT1A [35S]GTPγS binding functional assay
- Type: biochemical
- APPLIED_CONDITIONS: Table 3a; read-out: 5HT1A [35S]GTPγS binding Agonist EC50 ± SEM
RECORDED_METRIC: EC50 (nM)

[[record]]
molecule = "CCc1cccc(N2CCN(CC(O)CCNC(=O)c3cc4ccccc4o3)CC2)c1Cl (stereo not drawn) [Compound 21]"
recorded_metric = "EC50"
unit_info = "nM"
recorded_number = 118

[[record]]
molecule = "CCc1cccc(N2CCN(CCCCNC(=O)c3cc4ccccc4[nH]3)CC2)c1Cl [Compound 18]"
recorded_metric = "EC50"
unit_info = "nM"
recorded_number = 149

[[record]]
molecule = "CCc1cccc(N2CCN(CCCCNC(=O)c3cc4ccccc4o3)CC2)c1Cl [Compound 20]"
recorded_metric = "EC50"
unit_info = "nM"
recorded_number = 31


---

- ASSAYED_TARGET: UniProtKB P35462
- ASSAY_DETAILS: D3R mitogenesis assay: stimulation or inhibition of quinpirole-stimulated mitogenesis in CHO cells
- Format: cell-based
- APPLIED_CONDITIONS: Table 2b; inhibition of quinpirole-stimulated mitogenesis; read-out: Antagonist IC50 ± S.E.M.
Listing of recorded IC50 by entry.
RECORDED_METRIC: IC50 (nM)

[[record]]
molecule = "CCc1cccc(N2CCN(CC(F)CCNC(=O)c3cc4ccccc4[nH]3)CC2)c1Cl (racemic)"
recorded_number = 95

[[record]]
molecule = "CCc1cccc(N2CCN(CC(F)CCNC(=O)c3cc4ccccc4o3)CC2)c1Cl (racemic)"
recorded_number = 450

[[record]]
molecule = "CCc1cc(Cl)c(OC)c(N2CCN(C[C@@H](O)CCNC(=O)c3cc4ccccc4[nH]3)CC2)c1 [(S)-29]"
recorded_number = 1020

[[record]]
molecule = "CCc1cc(Cl)c(OC)c(N2CCN(CC(F)CCNC(=O)c3cc4ccccc4o3)CC2)c1 (racemic)"
recorded_number = 490

[[record]]
molecule = "CCc1cc(Cl)c(OC)c(N2CCN(CC(F)CCNC(=O)c3cc4ccccc4[nH]3)CC2)c1 (racemic)"
recorded_number = 510

[[record]]
molecule = "CCc1cc(Cl)c(OC)c(N2CCN(C[C@H](O)CCNC(=O)c3cc4ccccc4[nH]3)CC2)c1 [(R)-29]"
recorded_number = 350


---

- ASSAYED_TARGET: human D3R (Homo sapiens (Human), UniProt P35462)
- Sequence (P35462 whole entry): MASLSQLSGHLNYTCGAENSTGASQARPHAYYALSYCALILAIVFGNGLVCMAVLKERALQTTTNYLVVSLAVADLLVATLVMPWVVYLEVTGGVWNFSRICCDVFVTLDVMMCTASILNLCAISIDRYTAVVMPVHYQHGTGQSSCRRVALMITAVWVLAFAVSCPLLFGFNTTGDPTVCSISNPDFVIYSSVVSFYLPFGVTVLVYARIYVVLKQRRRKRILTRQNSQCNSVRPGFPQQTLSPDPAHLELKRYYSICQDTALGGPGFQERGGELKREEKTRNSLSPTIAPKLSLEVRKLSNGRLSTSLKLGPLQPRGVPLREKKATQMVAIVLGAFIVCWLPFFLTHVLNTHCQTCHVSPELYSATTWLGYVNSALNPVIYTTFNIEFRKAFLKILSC
- ASSAY_DETAILS: Radioligand competition binding, [3H]N-methylspiperone, HEK293 membranes expressing human D3R
- APPLIED_CONDITIONS: Table 1A; HEK 293 cells transfected with hD3R, [3H]N-methylspiperone; read-out: D3R Ki ± SEM
Listing of recorded log10(Ki) by entry.
RECORDED_METRIC: log10(Ki) (log10 of the value in nM)

[[record]]
molecule = "CCc1cccc(N2CCN(CCCCNC(=O)c3c(C)nc4sccn34)CC2)c1Cl"
recorded_number = -0.03

[[record]]
molecule = "CCc1cccc(N2CCN(CCCCNC(=O)c3cc4ccccc4o3)CC2)c1Cl"
recorded_number = -0.82

[[record]]
molecule = "CCc1cc(Cl)c(OC)c(N2CCN(CCCCNC(=O)c3cc4ccccc4[nH]3)CC2)c1"
recorded_number = -0.47

[[record]]
molecule = "CCc1cccc(N2CCN(CC(O)CCNC(=O)c3cn4ccccc4n3)CC2)c1Cl (stereo not drawn)"
recorded_number = 0.63

[[record]]
molecule = "CCc1cc(Cl)c(OC)c(N2CCN(CC(O)CCNC(=O)c3cc4ccccc4o3)CC2)c1 (stereo not drawn)"
recorded_number = 1.56

[[record]]
molecule = "CCc1c[nH]c(C(=O)NCCCCN2CCN(c3cccc(CC)c3Cl)CC2)n1"
recorded_number = 0.06

[[record]]
molecule = "CCc1cccc(N2CCN(C/C=C/CNC(=O)c3nc(C)c[nH]3)CC2)c1Cl"
recorded_number = 0.11

[[record]]
molecule = "CCc1cccc(N2CCN(CC(O)CCNC(=O)c3nc(C)c[nH]3)CC2)c1Cl (stereo not drawn)"
recorded_number = 1.05

[[record]]
molecule = "CCc1cccc(N2CCN(CCCCNC(=O)c3nc(C)c[nH]3)CC2)c1Cl"
recorded_number = -0.21


Data provenance: patent US11337971B2
